Target: T1, naked peptide SSMEDYVNFN (human)
T1 peptide: SSMEDYVNFN
Test: ELISA naked peptide; scFv 1 ug/mL; repI
QUANTITY MEASURED: OD450 (OD)
Give just the number in OD; leave the unit off.

*Q* Find the recorded OD450 belonging to Comparative antibody 2 (Comp-2) scFv, 243LO326 (VH SEQ ID NO: 51 and VL SEQ ID NO: 52 of WO 2022/195028 A2), His-tagged (scFv) scFv: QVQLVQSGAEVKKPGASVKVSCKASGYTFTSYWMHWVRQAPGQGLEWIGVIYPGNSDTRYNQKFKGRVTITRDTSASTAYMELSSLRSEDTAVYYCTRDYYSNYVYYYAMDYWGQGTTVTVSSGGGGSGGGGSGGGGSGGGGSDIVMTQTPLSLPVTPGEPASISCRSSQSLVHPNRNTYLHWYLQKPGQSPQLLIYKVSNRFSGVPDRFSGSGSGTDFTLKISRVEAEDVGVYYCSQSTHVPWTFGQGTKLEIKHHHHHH and report it.
*A* 0.1
